Target: T1, recombinant cynomolgous IL-23 (cynomolgous)
T1 chain 1: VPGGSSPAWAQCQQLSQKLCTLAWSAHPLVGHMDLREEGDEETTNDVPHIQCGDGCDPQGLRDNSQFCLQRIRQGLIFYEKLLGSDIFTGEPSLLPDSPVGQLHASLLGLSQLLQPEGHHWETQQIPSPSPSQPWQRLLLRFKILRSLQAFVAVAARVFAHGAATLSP
T1 chain 2: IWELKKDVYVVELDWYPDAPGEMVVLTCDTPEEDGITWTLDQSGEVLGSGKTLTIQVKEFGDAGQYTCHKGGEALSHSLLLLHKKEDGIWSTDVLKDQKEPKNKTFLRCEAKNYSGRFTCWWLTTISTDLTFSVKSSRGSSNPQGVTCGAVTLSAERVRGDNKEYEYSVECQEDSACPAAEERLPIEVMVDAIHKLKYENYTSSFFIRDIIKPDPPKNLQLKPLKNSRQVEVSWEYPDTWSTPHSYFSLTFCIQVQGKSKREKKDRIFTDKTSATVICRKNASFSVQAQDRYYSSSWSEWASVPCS
Assay: cell-based or functional assay
Item-by-item account of IC50 (pM), STAT-luciferase assay
reportedProperty: IC50 (pM), STAT-luciferase assay

binder="Antibody J (antibody, V domains shown) VH: QVQLVESGGGVVQPGRSLRLSCAASGFTFSSYGMHWVRQAPGKGLEWVAVISFDGSLKYYADSVKGRFTISRDNSKNTLYLQMNSLRAEDTAVYYCARERTTLSGSYFDYWGQGTLVTVSS VL: QAVLTQPSSLSASPGASASLTCTLRSGINVGTYRIYWYQQKPGSPPQYLLRYKSDSDKQQGSGVPSRFSGSKDASANAGILLISGLQSEDEADYYCMIWHSSASVFGGGTKLTVL" reportedproperty="IC50 (pM), STAT-luciferase assay" reportedmeasurement="56 pM"
binder="Antibody N (antibody, V domains shown) VH: EVQLVESGGGLVQPGGSLRLSCAASGFTFSTYSMNWVRQAPGKGLEWVSYISSSSSTRYHADSVKGRFTISRDNAKNSLYLQMNSLRDEDTAVYYCARRIAAAGPWGYYYAMDVWGQGTTVTVSS VL: QPVLTQPPSASASLGASVTLTCTLSSGYSDYKVDWYQQRPGKGPRFVMRVGTGGIVGSKGEGIPDRFSVLGSGLNRYLTIKNIQEEDESDYHCGADHGSGNNFVYVFGTGTKVTVL" reportedproperty="IC50 (pM), STAT-luciferase assay" reportedmeasurement="238 pM"
binder="Antibody M (antibody, V domains shown) VH: EVQLVESGGGLVQPGGSLRLSCAASGFTFSSYSMNWVRQAPGKGLEWVSYISSRSSTIYIADSVKGRFTISRDNAKNSLYLQMNSLRDEDTAVYYCARRIAAAGGFHYYYALDVWGQGTTVTVSS VL: QPVLTQPPSASASLGASVTLTCTLNSGYSDYKVDWYQQRPGKGPRFVMRVGTGGIVGSKGDGIPDRFSVLGSGLNRYLTIKNIQEEDESDYHCGADHGSGSNFVYVFGTGTKVTVL" reportedproperty="IC50 (pM), STAT-luciferase assay" reportedmeasurement="56 pM"
